EC50 for assorted molecules
- test_target: KHK-C expressed in NRK-52E cells (Homo sapiens (Human), UniProt P50053)
- Sequence (P50053 whole entry): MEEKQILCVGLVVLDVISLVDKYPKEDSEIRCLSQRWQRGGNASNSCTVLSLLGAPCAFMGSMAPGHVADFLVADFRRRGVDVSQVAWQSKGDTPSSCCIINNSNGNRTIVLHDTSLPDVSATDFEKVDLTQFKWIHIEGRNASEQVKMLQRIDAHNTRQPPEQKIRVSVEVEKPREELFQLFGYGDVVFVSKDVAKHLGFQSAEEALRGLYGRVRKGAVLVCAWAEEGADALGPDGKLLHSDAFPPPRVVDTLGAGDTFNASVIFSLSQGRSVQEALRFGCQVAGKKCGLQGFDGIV
- procedure_details: KHK-C Cell-based Assay (EC50), NRK CTG, fructose-mediated ATP-depletion

molecule: C[C@H]1CCN1c1nc2c(c(-c3ccc(C4(C(N)=O)CC4)cc3)n1)CCC2 [Example 252]
EC50: 1670 nM
//
molecule: N#CC1CCN1c1nc(-c2ccc(C(N)=O)cc2)c2c(n1)C(F)(F)CC2 (stereo not shown) [Example 706]
EC50: 366 nM
//
molecule: C[C@H]1CCN1c1nc2c(c(-c3cccc([C@H]4C[C@@H]4C(=O)O)c3)n1)CCC2 (single isomer, unassigned) [Example 89]
EC50: 37 nM
//
molecule: C[C@H]1[C@H](O)CN1c1nc2c(c(-c3ccc(C(N)=O)c(F)c3)n1)CCC2 [Example 307]
EC50: 166 nM
